# Assay: Components of the Cytosolic LPS Sensing Pathway: Gene Identification via Genome-wide siRNA Screen
# Condition: RAW264.7 macrophages, IL-1a HTRF, actives lie on both sides, screened at 100 nM (by protocol), cells primed 5 h with Pam3CSK4 first
The campaign covered roughly 53,000 sequences. About 3,700 (7%) were called active.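 How the source made its calls: active means gene knockdowns whose robust z-score for IL-1 alpha signal is at least 2 or at most -2, so actives lie on both sides; inactive means the rest.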 This is one part of a sample in which actives are shown more often than they occur.
Form entry, call: pick from Y (active), N (inactive)

Exercise: Test call, this sequence: CCUUAGUAUGUAUGUGGUATT against Map10
Solution: Y

Exercise: Test call, this sequence: GGAAGAAGGUACAUUUCAGTT against Ankrd42
Solution: N

Exercise: Test call, this sequence: GGUGCUCAAAGAAUGCAUUTT against Prkar1b
Solution: N

Exercise: Test call, this sequence: GGACUCUCAGAAGAAUGAUTT against Hmmr
Solution: Y

Exercise: Test call, this sequence: AUGCUUUUUGGAGCCAUAUTT against Olfr307
Solution: Y

Exercise: Test call, this sequence: GGUGCCCACUAACUUAGAATT against Tbx21
Solution: Y

Exercise: Test call, this sequence: GGUAGUGAAAAUGAAGAGUTT against Gtf2h1
Solution: N

Exercise: Test call, this sequence: GGACCAGAGUAACUUGAAUTT against Zfp128
Solution: N

Exercise: Test call, this sequence: GGGAAGAACUUCAAGCUUGTT against Ptk2b
Solution: N

Exercise: Test call, this sequence: GGUAGUCUGAACACUCUAATT against Msto1
Solution: N

Exercise: Test call, this sequence: CCUGAAGAAAGAAUCCCUATT against Nobox
Solution: N

Exercise: Test call, this sequence: GCAGGUUCAGGCAGUAAUUTT against Kpna4
Solution: Y

The measurements presented in this section are drawn from PubChem BioAssay AID1508600.
